# Study System: AP-2 complex subunit beta (Homo sapiens)
# Procedure Details: inhibitors of arrestin peptide binding to AP2, pilot screen, biochemical, validation set, GST-AP2 beads, flow cytometry (AID 504541);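 note: AP2 carries R879A mutation and is captured from E. coli lysate; bead-bound FITC arrestin peptide fluorescence measuring arrestin peptide binding to AP2; 0% = DMSO wells and 100% = excess unlabeled arrestin peptide control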
# Reported Conditions: FITC arrestin peptide, at 10 µM, hits give high values, AP2 beta2 appendage fragment, R879A mutant
# key: entry, value: inhibition
Report as a plain number; the unit % is understood.

Solved entries (count: 10):
[
  {
    "Molecule": "COc1ccc(Cc2nc(-c3ccc(Br)cc3)no2)cc1",
    "inhibition [%]": 58.9
  },
  {
    "Molecule": "COC(=O)c1cc(-c2ccc(C)o2)nc2ccccc12",
    "inhibition [%]": 3.96
  },
  {
    "Molecule": "COc1ccc(S(=O)(=O)N2CCN(C(=O)COc3ccc4c(C)cc(=O)oc4c3)CC2)cc1",
    "inhibition [%]": -2.78
  },
  {
    "Molecule": "CNc1nc(Nc2ccccc2)nc(OCC(F)(F)F)n1",
    "inhibition [%]": 44.3
  },
  {
    "Molecule": "CN(C)C(=O)C12CCC(C)(c3nc4ccccc4nc31)C2(C)C (configuration not stated)",
    "inhibition [%]": 9.98
  },
  {
    "Molecule": "CC1(C)CC(=O)C(C2(O)C(=O)Nc3ccccc32)CO1 (configuration not stated)",
    "inhibition [%]": 0.15
  },
  {
    "Molecule": "C[C@]12C=CC(=O)C=C1CCC1C3CC[C@](O)(C(=O)CO)[C@@]3(C)CC3OC312 (some centres not stated)",
    "inhibition [%]": -1.32
  },
  {
    "Molecule": "COc1ccc(C2C3C(C)=NN=C3CC(C)(O)C2C(C)=O)cc1 (configuration not stated)",
    "inhibition [%]": 12.8
  },
  {
    "Molecule": "Cc1c(CCOC(=O)CC23CC4CC(CC(C)(C4)C2)C3)sc[n+]1Cc1ccc([N+](=O)[O-])cc1",
    "inhibition [%]": -6.04
  },
  {
    "Molecule": "CCOC(=O)c1c(C)oc2cc(Br)c(OC(C)C(=O)OCC)cc12 (configuration not stated)",
    "inhibition [%]": 1.62
  }
]

# inhibition (molecule: CCN(CC)CCNc1ccc(CO)c2sc3ccccc3c(=O)c12 ) is -0.76

# inhibition (molecule: CC(=O)NCCCC(=O)NC(CCC(=O)OCc1ccccc1)C(=O)OCc1ccccc1 (configuration not stated) ) is -8.67
